Biological target: c-src (Homo sapiens, UniProt P12931)
Sequence (P12931 whole entry): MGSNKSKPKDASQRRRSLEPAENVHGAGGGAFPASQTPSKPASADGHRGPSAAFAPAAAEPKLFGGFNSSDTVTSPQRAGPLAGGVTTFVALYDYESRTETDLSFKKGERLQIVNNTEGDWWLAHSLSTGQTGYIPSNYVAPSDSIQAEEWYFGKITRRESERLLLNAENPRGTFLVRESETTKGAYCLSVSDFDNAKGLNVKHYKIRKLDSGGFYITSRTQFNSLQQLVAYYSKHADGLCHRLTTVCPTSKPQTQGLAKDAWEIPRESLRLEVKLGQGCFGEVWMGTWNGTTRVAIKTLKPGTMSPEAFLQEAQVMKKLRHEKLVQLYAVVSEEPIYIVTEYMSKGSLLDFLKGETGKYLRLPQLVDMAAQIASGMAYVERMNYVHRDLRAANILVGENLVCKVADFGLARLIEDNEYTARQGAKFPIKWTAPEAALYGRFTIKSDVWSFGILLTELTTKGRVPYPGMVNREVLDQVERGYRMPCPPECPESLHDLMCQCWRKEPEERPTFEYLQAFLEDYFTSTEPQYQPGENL
Assay: HotSpot radioisotope filter-binding kinase assay
Type: biochemical
Conditions: IC50 (class), Pacritinib scale

# smiles, IC50
records = [
    ("C1=C/COCc2cc(ccc2OCCN2CCCC2)Nc2nccc(n2)-c2cccc(c2)COC/1", "25 to 50 nM"),
]

====

Molecular target: TNK1 (Homo sapiens, UniProt Q13470)
Sequence (Q13470 whole entry): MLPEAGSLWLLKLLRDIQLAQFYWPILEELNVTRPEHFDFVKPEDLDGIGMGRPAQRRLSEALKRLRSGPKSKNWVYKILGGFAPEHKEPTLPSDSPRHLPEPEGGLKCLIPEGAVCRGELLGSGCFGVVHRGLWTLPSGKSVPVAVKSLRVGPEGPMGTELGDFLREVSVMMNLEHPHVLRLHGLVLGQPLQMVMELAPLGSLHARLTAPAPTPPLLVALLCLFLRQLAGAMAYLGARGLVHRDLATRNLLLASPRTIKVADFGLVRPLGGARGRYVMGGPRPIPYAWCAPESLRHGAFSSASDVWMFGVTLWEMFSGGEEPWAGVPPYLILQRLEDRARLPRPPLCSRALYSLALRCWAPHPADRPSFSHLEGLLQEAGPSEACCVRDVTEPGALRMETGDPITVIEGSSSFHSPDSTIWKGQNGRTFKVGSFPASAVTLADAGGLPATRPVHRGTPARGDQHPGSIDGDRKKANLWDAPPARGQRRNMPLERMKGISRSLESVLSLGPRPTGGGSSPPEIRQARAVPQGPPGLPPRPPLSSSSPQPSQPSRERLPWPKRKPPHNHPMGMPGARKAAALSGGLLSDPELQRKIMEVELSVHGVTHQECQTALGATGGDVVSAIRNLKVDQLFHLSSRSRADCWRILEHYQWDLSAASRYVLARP
Assay: HotSpot radioisotope filter-binding kinase assay
Format: biochemical
Conditions: IC50 (class), Pacritinib scale
pIC50: −log10 of the molar value.

# smiles, pIC50
measured = [
    ("C1=C/COCc2cc(ccc2OCCN2CCCC2)Nc2nccc(n2)-c2cccc(c2)COC/1", "> 7.60"),
]
